Across several studies, molecules have been characterized by their IC50 on JNK3 (Homo sapiens); a selection follows.
READOUT_KIND: IC50

INSERT INTO measurements (molecule, result) VALUES
  ('Cn1cc(C(F)(F)F)c(-c2ccc(S(=O)(=O)NCc3c[nH]c4ncccc34)s2)n1', '≤ 10000 nM'),
  ('CCCCNC(=O)n1ccc2c(C(=O)c3c[nH]c4ncc(-c5cccnc5)cc34)cccc21', '≤ 10000 nM'),
  ('Cc1csc(-c2c[nH]c3ncc([C@H]4CC[C@H](N5CCCOCC5)CC4)cc23)n1', '832 nM'),
  ('O=C(NC1COC1)c1cc(-n2ncc3cc(Nc4ccccc4Cl)ncc32)cs1', '< 200 nM'),
  ('COc1ccc(CC(=O)Nc2ccsc2-c2nnc(C(C)C)o2)cc1', '> 10000 nM'),
  ('Cn1cc(-c2c[nH]c3ncc(Oc4ccccc4)cc23)cn1', '< 500 nM'),
  ('OCc1cccc2c1C=Cc1cccc3[nH]nc-2c13', '≤ 300 nM'),
  ('O=C(N[C@H]1CCOC1)c1cc(-n2ncc3cc(Nc4ccccc4Cl)c(F)cc32)cs1', '< 200 nM'),
  ('COc1nc(-c2c[nH]c3ncc(C4CCCCC4)cc23)cs1', '891 nM'),
  ('Cn1cc(-c2c[nH]c3ncc([C@H]4CC[C@H](N5CC[C@H](F)C5)CC4)cc23)cn1', '214 nM'),
  ('Cn1cc(-c2c[nH]c3ncc(C4=CC5CC(=O)CC(C4)C5)cc23)cn1 (stereo not drawn)', '167 nM'),
  ('O=C(Cc1cccc2nccn12)Nc1scc(Br)c1-c1ncn[nH]1', '100 to 10000 nM'),
  ('O=C(c1cccc(O)c1)c1c[nH]c2ncc(-c3ccsc3)cc12', '≤ 10000 nM'),
  ('Cn1cc(-c2c[nH]c3ncc([C@H]4CC[C@H](N5CCOCC5)CC4)cc23)cn1', '80 nM'),
  ('COCCNC(=O)c1cc(-n2ncc3nc(Oc4ccccc4Cl)ccc32)cs1', '< 200 nM'),
  ('CN1CCC(c2nc(-c3c[nH]c4ncc(C5=CCCC5)cc34)cs2)CC1', '434 nM'),
  ('N#CCc1cnc(-c2ccc3ccccc3n2)n1-c1ccnc(NC2CCCCC2)n1', '> 100 nM'),
  ('Cn1cc(-c2c[nH]c3ncc(C4=CC5CC(O)CC(C4)C5)cc23)cn1 (stereo not drawn)', '> 1000 nM');

----------
Here is a set of molecules with reported IC50 for JNK3 (Homo sapiens, UniProt P53779), compiled from the literature.
READOUT_KIND: IC50

INSERT INTO measurements (molecule, result) VALUES
  ('O=C(c1cccc(O)c1)c1c[nH]c2ncc(Nc3ccccc3)cc12', '≤ 10 µM'),
  ('O=C(c1cc(O)ccc1F)c1c[nH]c2ncc(-c3cccs3)cc12', '≤ 10 µM'),
  ('Cn1cc(-c2c[nH]c3ncc(C4=CC(C)(C)CC(C)(C)C4)cc23)cn1', '5.5 µM'),
  ('CC(=O)Nc1ccc(F)c(C(=O)c2c[nH]c3ncc(-c4cccnc4)cc23)c1F', '≤ 10 µM'),
  ('O=C(Cc1ccsc1)Nc1cc(F)c2[nH]nc(-c3cccc(F)c3)c2c1', '0.071 µM'),
  ('N#Cc1csc(NC(=O)Cn2c(=O)ccc3cc(C(F)(F)F)ccc32)c1-n1nccn1', '< 0.1 µM'),
  ('O=C(Cc1cccc2ncccc12)Nc1scc(Cl)c1-c1ncn[nH]1', '< 0.1 µM'),
  ('Oc1ncc(F)c(Cc2c[nH]c3ncc(-c4ccsc4)cc23)c1F', '≤ 10 µM'),
  ('CS(=O)(=O)c1cccc(-c2cnc3[nH]cc(C(=O)c4cccc(O)c4F)c3c2)c1', '≤ 10 µM'),
  ('O=C(Cn1c(=O)ccc2cnc(C(F)(F)F)cc21)Nc1scc(Cl)c1-c1nc[nH]n1', '< 0.1 µM'),
  ('[O-][S+](c1ccccc1)c1cnc2[nH]cc(-c3cn[nH]c3)c2c1 (stereo not drawn)', '< 0.5 µM'),
  ('[2H]C([2H])([2H])N1CC[C@@H](NC(=O)c2cc(-n3ncc4cc(Oc5ccccc5Cl)ccc43)cs2)C1', '< 0.2 µM'),
  ('O=C(O)COc1ccc(F)c(Cc2c[nH]c3ncc(-c4cccnc4)cc23)c1F', '≤ 10 µM'),
  ('CCCCCc1cnc2[nH]cc(-c3csc(C(=O)N4CCOCC4)n3)c2c1', '< 0.5 µM'),
  ('O=C(c1c[nH]c2ncc(-c3ccc(Cl)cc3)cc12)c1cccc2c1ccn2C(=O)NCc1ccccc1', '≤ 10 µM'),
  ('Cc1nc(-c2sccc2NC(=O)CN2C(=O)CCc3ccccc32)c[nH]1', '> 10 µM'),
  ('O=C(CNS(=O)(=O)c1ccc(CNC(=O)c2ccc(Cl)cc2)s1)Nc1cccc(S(=O)(=O)C(F)(F)F)c1', '0.64 µM'),
  ('Cn1cc(-c2c[nH]c3ncc(C4=CCCCC4)cc23)cn1', '0.11 µM');
